System: NCI/ADR-RES ovarian
Assay: NCI-60 one-dose screen, 48 h (100 = growth as untreated, 0 = no growth, -100 = all killed)
Conditions: 10 µM unless noted
About 83,000 compounds went through this panel and 20% of them were active in at least one assay; those are over-represented in the sample as a whole.
growth values for the molecules below.
measurementType: growth (%)

> print(dat)
                                    molecule  assayvalue
 1  CCOC(=O)C1=C(N)Oc2c(sc3c(F)cccc23)C1c1ccc(O)cc1 (centres undefined)        36.6
 2  O=S(=O)(NCCCNc1nccc(-c2c(-c3ccc(F)c(O)c3)nc3sccn23)n1)c1ccccc1         100
 3      Cc1cc(C(=O)O)c(C)n1-c1cccc(C(=O)O)c1        72.1
 4  CCCCCOC(=O)c1c(C)[nH]c(/C=C2\N=C(c3ccc[nH]3)C=C2OC)c1C        5.69
 5  O=C1c2ccccc2-c2c1c1c(=O)[nH]c3ccccc3c1n2Cc1ccccc1        67.9
 6  COc1cc(NS(=O)(=O)c2ccc(-c3cnc(C4CC4)o3)cc2)ccc1F        15.3
 7  COCCn1cc(-c2csc(-c3cn(C)c4ccc(Br)cc34)n2)c2cccnc21          60
 8  COc1ccc(Nc2ncc(Br)c(NCCCNC(=O)c3cccs3)n2)cc1        46.5
 9  CCOC(=O)C1=C(c2ccccc2)N=C2SC=C(c3ccc(Cl)cc3)N2C1c1ccc(Br)cc1 (centres undefined)          83
10  CC(O)(c1ccccc1)C(c1ccccc1)C1CCCCN1 (centres undefined)         105
11        Cc1ccc(/C=C2\COc3ccc(O)cc3C2=O)cc1         101
12      Nc1nc(N)c(-c2ccc(Cl)c(Cl)c2)c(CBr)n1        58.2
13        COc1ccc(CN2c3ccccc3Sc3ccccc32)cc1F        2.82
14   COc1ccc(Nc2nnc(-c3ccc(OC)c(OC)c3)o2)cc1        89.2
15  COc1ccc(-c2nn(-c3cccc(Cl)c3)cc2-c2cc(-c3ccc(Br)cc3)nc(N)n2)cc1        99.8
16  CCN(CC)CCn1c2ccc(OC)cc2c2sc3cc(OC)ccc3c(=O)c21          23
17  CCCCCCC12CCC(=O)N1CCc1cncn12 (centres undefined)         104
18  Cc1c(-c2ccc(O)cc2)n(Cc2ccc(OCCN3CCCCCC3)cc2)c2ccc(O)cc12        85.7
19  CCN(C)S(=O)(=O)Nc1cccc(Nc2ncnc3cc(NC(=O)CCl)ccc23)c1Cl        59.3
20   NNc1nc(-c2cccnc2)nc2c1sc(=S)n2-c1ccccc1         102
21  Fc1cccc(Oc2ccc(Nc3ncnc4ccc(OCCCN5CCOCC5)cc34)cc2Cl)c1        55.1
22  CC1=NC2=Nn3c(c4cnn(-c5ccccc5)c4n/c3=N\N)NN2C(c2ccccc2)=C1        97.5
23  Nc1ncnc2c1C(c1ccc(Br)cc1)c1sc3c(F)cccc3c1O2 (centres undefined)        96.1
24  CCn1cc(C(=O)O)c(=O)c2cc(F)c(N3CCN(CC(=O)Nc4ccc(S(=O)(=O)Nc5nccc(C)n5)cc4)C(C)C3)c(F)c21 (centres undefined)         107

* * *

Some compounds, each annotated with its measured growth.
System: TK-10 renal
Assay: NCI-60 one-dose screen, 48 h (100 = growth as untreated, 0 = no growth, -100 = all killed)
Settings: 10 µM unless noted
Compounds without any hit were thinned out: in the full panel of roughly 83,000, 20% have a hit. The source made the active and inactive calls. Rule for the calls: active = growth percent below 10; inactive = the rest.
measurementType: growth

> print(dat)
                               recordsmiles  assaysystem  measurementtype       assayvalue
1  COC1=CC(c2ccc[nH]2)=N/C1=C\c1[nH]c(C)c(C(=O)OC(C)C)c1C  TK-10 renal           growth   3.42% (active)
2  O=C1C(Cl)=C(Nc2ccc(S(=O)(=O)N3CCOCC3)cc2)C(=O)c2ccccc21  TK-10 renal           growth  105% (inactive)
3      Fc1ccc(CNc2c3ccccc3nc3ccccc23)c(F)c1  TK-10 renal           growth   61% (inactive)
4  C#CCOc1cccc(Nc2ncnc3cc(NC(=O)C=C)ccc23)c1  TK-10 renal           growth  -12.6% (active)

* * *

growth by entry:
Test system: HOP-92 NSCLC
Assay: NCI-60 one-dose screen, 48 h (100 = growth as untreated, 0 = no growth, -100 = all killed)
Conditions: 10 µM unless noted
Compounds without any hit were thinned out: in the full panel of roughly 83,000, 20% have a hit. Calls of active or inactive are those of the source. How the source made its calls: active means growth percent below 10; inactive means the rest.
measurementType: growth

> print(dat)
                                    compound        assayvalue
 1  COc1ccc2c(c1)N(CCO)C1=C(C(=O)OC1)C2c1cccc(F)c1 (stereo unspecified)  57.4% (inactive)
 2  CCCC/C(CC)=N\NS(=O)(=O)c1ccc([N+](=O)[O-])cc1  91.6% (inactive)
 3  CCOC(=O)c1nn(-c2ccc(S(N)(=O)=O)cc2)c2nc(C)cc(=O)n12    95% (inactive)
 4              CN(C)c1ccc(C(=O)OCCCCCCl)cc1  89.3% (inactive)
 5  CCSc1oc(-c2ccccc2)nc1[P+](c1ccccc1)(c1ccccc1)c1ccccc1   -27.9% (active)
 6  CS(=O)(=O)Nc1cncc(-c2ccc3ncnc(Nc4cncc(Cl)c4)c3c2)c1  31.5% (inactive)
 7  C[C@@H](CO)[C@@H]1CCC=C2CC[C@]3(C)[C@H](CC[C@@H]4[C@@]5(C)CCCNC(C)(C)[C@@H]5CC[C@]43C)[C@H]21  75.7% (inactive)
 8  CN(C)CC1CCC(CN(C)C)C1=O (stereo unspecified)   100% (inactive)
 9     O=C(/C=C/c1cccs1)Nc1ncc(Cc2ccccc2F)s1    60% (inactive)
10  O=C(Nc1ccc(Oc2cccc(Cl)c2)c(Cl)c1)c1cccnc1  61.3% (inactive)
11   CCCn1cc2c(=O)nc3sc(Cc4ccccc4)c(C)n3c2n1  88.4% (inactive)
12  COc1cc(/C=C2/C=C(c3ccccc3)N(CCc3ccc(S(N)(=O)=O)cc3)C2=O)cc(OC)c1OC  41.9% (inactive)
13  O=C(O)c1ccc(-n2cc(/C=N/Nc3ccccc3)c(-c3ccc(F)cc3F)n2)cc1  83.5% (inactive)
14  Cc1ccc(-c2nc(N3CCCNCC3)c3oc(-c4ccc(C)cc4)nc3n2)cc1  60.9% (inactive)
15  Cc1ccc2c(Cn3cc(CSc4nc5ccccc5o4)nn3)cc(=O)oc2c1   110% (inactive)
16  CCN(CC)CCn1c2ccc(O)cc2c2sc3cc(O)ccc3c(=O)c21  60.5% (inactive)
17  O=C(CN1C(=O)S/C(=C\C(Cl)=C\c2ccccc2)C1=O)NCCc1ccc(O)cc1  15.6% (inactive)
18  CCOC(=O)c1ccc(NC(=O)c2nc(-c3cc(OC)c(OC)c(OC)c3)n(-c3ccc(Cl)cc3)n2)cc1  71.8% (inactive)
19  CCOC(=O)C1=C(c2ccccc2)N=C2SC=C(c3ccc(Cl)cc3)N2C1c1ccc(Cl)cc1 (stereo unspecified)  69.8% (inactive)
20  COc1ccc(Nc2ncc(Br)c(NCCCNC(=O)C3CCCC3)n2)cc1    26% (inactive)
21  CC1CN(S(=O)(=O)c2oc(-c3ccc(Cl)cc3)nc2C#N)CC(C)O1 (stereo unspecified)  76.3% (inactive)
22  COc1ccc(-c2nn(-c3cccc(Cl)c3)cc2-c2cc(-c3ccc(Br)cc3)nc(N)n2)cc1    91% (inactive)
23  COc1ccc(C(C)=O)cc1S(=O)(=O)Nc1c(N)nc(SC)[nH]c1=O   115% (inactive)
24  COc1ccc(/C=N/NC(=O)c2ccc(-n3cc(-c4ccccc4)nn3)cc2)cc1OC  94.9% (inactive)
25  CC1=C([Se]CC(OC(=O)CC[Se]c2ccccc2)C(=O)NC(C)(C)C)C(=O)c2ccccc2C1=O (stereo unspecified)   -74.5% (active)
26  CCCCCCCC[C@@H]1N[C@@H](C(=O)OC)Cc2c1[nH]c1ccccc21  89.5% (inactive)
27  CC1CCN(S(=O)(=O)c2ccc(S(=O)(=O)N3CCCC(c4nc5c(nnn5Cc5cccc(Cl)c5)c(=O)[nH]4)C3)cc2)CC1 (stereo unspecified)    56% (inactive)
28     Cc1c(O)cc(-c2cnc(Nc3ccccc3)s2)c(O)c1C   -64.4% (active)
29      Nc1nc(N)c(-c2ccc(Cl)c(Cl)c2)c(CBr)n1    99% (inactive)
30  C=C1C(=O)O[C@H]2[C@H]1CC/C(Cn1cc(-c3ccccc3)nn1)=C\CC[C@@]1(C)O[C@@H]21   -69.9% (active)
31             O=C(NCCCl)Nc1ncccc1OCc1ccccc1   103% (inactive)
